system_under_test: CLDN18.2 endogenously expressed on SNU620 gastric cancer cells (UniProt P56856)
measurement_protocol: FACS Exp. 3, SNU620 cells
Hi there, I'd appreciate the recorded MFI SNU620 (@30 ug/ml) for every entry that follows.
Numbers only, in MFI.

[
  {
    "binder": "hz282-9 (antibody, V domains shown, humanized IgG; constant regions not specified) VH: QVQLQESGPGLVKPSETLSLTCTVSGFSLTSYNVYWIRQPPGKGLEWIGVIWNTGATRYNSALKSRVTISVDTSKNQFSLKLSSVTAADTAVYYCARDSAMPAIPFAYWGQGTLVTVSS VL: DIQMTQSPSSLSASVGDRVTITCKSSQSLFGSVRQKNYLAWYQQKPGKAPKLLIYLASTRESGVPSRFSGSGSGTDFTLTISSLQPEDFATYYCQQYYDIPWTFGGGTKVEIK",
    "MFI SNU620 (@30 ug/ml) / MFI": 308
  }
]

Next binder, please.
Which MFI SNU620 (@30 ug/ml) value is on record for hz282-5 (antibody, V domains shown, humanized IgG; constant regions not specified) VH: QVQLQESGPGLVKPSETLSLTCTVSGFSLTSYNVYWIRQPPGKGLEWIGVIWNTGATRYNSALKSRVTISVDTSKNQFSLKLSSVTAADTAVYYCARDSAMPAIPFAYWGQGTLVTVSS VL: DIVMTQSPDSLAVSLGERATINCKSSQSLFGSVRQKNYLAWYQQKPGQSPKLLIYLASTRESGVPDRFSGSGSGTDFTLTISSLQAEDVAKYYCQQYYDIPWTFGGGTKVEIK ?
135
